conditions: in ethanol, 323.26 K
observationType: solubility (mole fraction)
Please give only the number in your answer, with no unit.

Quick check: solubility (mole fraction) of O=C(O)Cn1cnnn1 ?
0.229

====

conditions: in n-butyl acetate, 318.24 K
observationType: solubility (mole fraction)
Please reply with the number alone, leaving off any unit.

Which solubility (mole fraction) is reported for this compound? O=C(O)Cn1cnnn1
0.0111

====

conditions: in water, 323.16 K
observationType: solubility (mole fraction)
Give the figure by itself; no unit, no explanation.

Bench note: what solubility (mole fraction) did O=C(O)Cn1cnnn1 show?
0.173

====

conditions: in n-propanol, 313.18 K
observationType: solubility (mole fraction)
Answer with a number only.

GET /values?readout=solubility (mole fraction)&item= O=C(O)Cn1cnnn1
0.0839
